Ok so here's the combined literature set: pIC50 for UniProt P12931.
pIC50: −log10 of the molar value.
observationType: pIC50

Below are worked cases with known answers.
- molecule: "COc1cc(Nc2cc(Oc3ccc(NC(=O)Nc4cc(C(C)(C)C)cc(NS(C)(=O)=O)c4OC)c4ccccc34)ccn2)ccc1C(=O)NCCOCCOCCO"
  assayedSystem: "UniProt P12931"
  pIC50: 7.66
- molecule: "CNC(=O)c1cc(C(C)(C)C)cc(NC(=O)Nc2ccc(Oc3ccnc(Nc4cc(CO)cc(OC)c4)c3)c3ccccc23)c1OC"
  assayedSystem: "UniProt P12931"
  pIC50: 7.68
- molecule: "COc1cc(Nc2cc(Oc3ccc(NC(=O)Nc4cc(C(C)(C)C)cc(CC(N)=O)c4OC)c4ccccc34)ccn2)cc(C(=O)NCCN2CCOCC2)c1"
  assayedSystem: "UniProt P12931"
  pIC50: 7.92

[I] C#CC(C)(C)c1cc(NC(=O)Nc2ccc(Oc3ccnc(Nc4cc(OC)cc(OCCOCCOCCOC)c4)n3)c3ccccc23)n(-c2ccc(C)cc2)n1
[II] O=C(NCCCO)c1nc2nc(Nc3ccc(F)cc3)ncc2cc1-c1ccccc1Br
[III] COc1c(NC(=O)Nc2ccc(Oc3ccnc(Nc4ccccc4)c3)c3ccccc23)cc(C(C)(C)C)cc1[S+](C)[O-] (racemic)
[in] // sort entries: pIC50, high to low Put the labels in the requested order and list them out.
[out] I, II, III

###

Reported IC50 against Proto-oncogene tyrosine-protein kinase Src (Homo sapiens), gathered from multiple publications, appears below.

- compound: "COCCOCCOCCOc1cc(Nc2cc(Oc3ccc(NC(=O)Nc4cc(C(C)(C)C)cc(S(C)(=O)=O)c4OC)c4ccccc34)ccn2)cc(OC)c1"
  assayedSystem: "Proto-oncogene tyrosine-protein kinase Src (Homo sapiens)"
  result: "52 nM"

[in] Please state recorded IC50 (tested on Proto-oncogene tyrosine-protein kinase Src (Homo sapiens)) of "COC(=O)c1cc2cc(NCc3cccs3)cnc2[nH]1"
[out] 100 to 10000 nM

[in] So what IC50 did "C=CC(=O)N1CCC(N2CC(C#Cc3c(-c4ccc(Cl)c(O)c4)c4c(N)ncnc4n3C)C2)CC1" get with Proto-oncogene tyrosine-protein kinase Src (Homo sapiens)?
[out] ≤ 10 nM

[in] Param readout = IC50; param system = Proto-oncogene tyrosine-protein kinase Src (Homo sapiens); param query = "COc1c(CNS(C)(=O)=O)cc(C(C)(C)C)cc1NC(=O)Nc1ccc(Oc2ccnc(Nc3ccccc3)c2)c2ccccc12" ; response: value
[out] 160 nM

[in] Given the entry "CCCS(=O)(=O)Nc1ccc(F)c(C(=O)c2c[nH]c3ncc(C(=O)NCCO)cc23)c1F" , what IC50 was observed with Proto-oncogene tyrosine-protein kinase Src (Homo sapiens)?
[out] ≤ 10000 nM

[in] For Proto-oncogene tyrosine-protein kinase Src (Homo sapiens), provide IC50 of Cc1cc(Cn2c(-c3ccccc3Cl)cc3cnc(Nc4cccc([S+](C)[O-])c4)nc3c2=O)nn1C (centres unmarked) please.
[out] 1 to 500 nM

[in] Can you look up IC50 on Proto-oncogene tyrosine-protein kinase Src (Homo sapiens) for "C=CC(=O)N1C[C@@H]2[C@@H](C#Cc3c(-c4ccccc4OC)c4c(N)ncnc4n3C)[C@@H]2C1" ?
[out] 10 to 1000 nM

[in] Can you look up IC50 on Proto-oncogene tyrosine-protein kinase Src (Homo sapiens) for "C=CC(=O)N1CC[C@@H](N2CC(C#Cc3c(-c4ccc(Cl)c(O)c4)c4c(N)ncnc4n3C)C2)[C@@H](O)C1" ?
[out] ≤ 10 nM

###

pIC50 for UniProt P12931 - collated from the literature.
pIC50: −log10 of the molar value.

Record excerpt, results attached:
- compound: "COc1cc(-c2cc3nccc(-c4cc(OC(F)(F)F)cc(C(=O)O)c4)c3o2)cc(OC)c1OC"
  pIC50: "5.52 to 6.52"
- compound: "C=CC(=O)N[C@H](C)C(=O)N1CCC(C#Cc2c(-c3ccc(Oc4ccccc4)cc3)c3c(N)ncnc3n2C2CCOC2)CC1 (stereo partly drawn)"
  pIC50: "≥ 8.00"
- compound: "Cc1cccc(-c2cc3nccc(Nc4ccc5[nH]ccc5c4C)c3o2)c1"
  pIC50: "5.52 to 6.52"
- compound: "CC(C)(C)c1cc(NC(=O)Nc2ccc(Oc3ccnc(Nc4ccc5c(c4)NC(=O)C5(C)C)n3)c3ccccc23)n(-c2ccc(OCCN3CCOCC3)cc2)n1"
  pIC50: 8.30

Next compound, please.
[in] If you can, please state the reported pIC50 value of "C#Cc1cc(Nc2nccc(Oc3ccc(NC(=O)Nc4cc(C(C)(C)C)nn4-c4ccc(OC)cc4)c4ccccc34)n2)cc(C(=O)NCCOCCOCCOC)c1" .
[out] 7.85

###

// cross-source set; read-out = IC50; system = Proto-oncogene tyrosine-protein kinase Src (Homo sapiens, UniProt P12931)

Below, each entry is followed by its recorded IC50 result.
- compound: "COc1cc(N2C(=O)Nc3c(C(=O)Nc4ccc(CN5CCN(C)CC5)cc4)sc4ncnc2c34)c(Cl)cc1Cl"
  IC50: "7.94 µM"
- compound: "COc1ccc(C(=O)c2c[nH]c3ncc(-c4cccs4)cc23)cc1"
  IC50: "≤ 10 µM"
- compound: "Nc1ncc(-c2cccc(Cl)c2)c2occ(-c3ccc(NC(=O)Nc4cc(C(F)(F)F)ccc4F)cc3)c12"
  IC50: "0.0102 to 0.1 µM"
- compound: "CC(C)c1cc(NC(=O)Nc2ccc(Oc3ccnc(Nc4ccc5[nH]ncc5c4)n3)c3ccccc23)n(-c2ccc(=O)n(CCO)c2)n1"
  IC50: "< 0.002 µM"

[in] Form: Entry = "Cc1ccc(F)cc1C(=O)c1c[nH]c2ncc(-c3cccc(N)c3)cc12" | System = Proto-oncogene tyrosine-protein kinase Src (Homo sapiens, UniProt P12931) | IC50 = ____
[out] ≤ 10 µM

[in] Record "COc1cc(Nc2ncnc(Nc3cc(-c4ccco4)n[nH]3)n2)cc(OC)c1" : what is its IC50 with Proto-oncogene tyrosine-protein kinase Src (Homo sapiens, UniProt P12931)?
[out] 1.05 to 6.33 µM

[in] Param readout= IC50; system= Proto-oncogene tyrosine-protein kinase Src (Homo sapiens, UniProt P12931); entry= "C=CCNc1cc(-c2ncnc(Nc3cc(OC)c(OC)c(OC)c3)n2)ccn1" ; returns value.
[out] > 11.4 µM

[in] # value lookup — system Proto-oncogene tyrosine-protein kinase Src (Homo sapiens, UniProt P12931), readout IC50, item C[S+]([O-])c1cccc(-c2nc3cc(NC(=O)c4ccccc4Cl)cnc3[nH]2)c1 (centres unmarked)
[out] 0.005 to 0.3 µM

###

From various publications: IC50 for Proto-oncogene tyrosine-protein kinase Src (Homo sapiens).

- smiles: "Cc1cc(Nc2nccc(Oc3ccc(NC(=O)Nc4cc(C(C)C)nn4-c4cccc(CP(C)(C)=O)c4)c4ccccc34)n2)cc2cn[nH]c12"
  IC50: "10 nM"
- smiles: "CN1CCN(CCCCCNc2cc3c(cn2)cc(-c2c(Cl)cccc2Cl)c(=O)n3C)CC1"
  IC50: "30 nM"
- smiles: "O=C(c1c(F)ccc(NS(=O)(=O)c2cc(F)ccc2F)c1F)c1c[nH]c2nccc(Cl)c12"
  IC50: "≤ 10000 nM"
- smiles: "O=C(c1cccc(O)c1F)c1c[nH]c2ncc(Br)cc12"
  IC50: "≤ 10000 nM"
- smiles: "C=CC(=O)N1CC(C#Cc2c(-c3ccc(Oc4ccccc4)cc3)c3c(N)ncnc3n2C(C)C)C1"
  IC50: "≤ 10 nM"
- smiles: "C=CS(=O)(=O)N1CCC(N2CC(C#Cc3c(-c4ccc(Oc5ccccc5)c(OC)n4)c4c(N)ncnc4n3C)C2)CC1"
  IC50: "≤ 10 nM"
- smiles: "COc1ncc(-c2cnc3[nH]cc(C(=O)c4c(F)ccc(NS(=O)(=O)c5ccc(F)cc5F)c4F)c3c2)cn1"
  IC50: "≤ 10000 nM"
- smiles: "C=C(C)C(=O)N1CCC(N2CC(C#Cc3c(-c4ccc(Oc5ccccc5)cc4)c4c(N)ncnc4n3C)C2)CC1"
  IC50: "10 to 1000 nM"

[in] Param readout= IC50; system= Proto-oncogene tyrosine-protein kinase Src (Homo sapiens); entry= "CCCc1ccc(-c2cnc3[nH]cc(C(=O)c4c(F)ccc(NS(=O)(=O)CCC)c4F)c3c2)cn1" ; returns value.
[out] ≤ 10000 nM

[in] Form field: IC50 recorded for "Cc1ccc(-n2nc(C(C)(C)C)cc2NC(=O)Nc2ccc(OCc3ccnc(Nc4cnc(C(=O)NCCN5CCOCC5)cn4)c3)c3ccccc23)cc1" with Proto-oncogene tyrosine-protein kinase Src (Homo sapiens) (enter value)
[out] 34 nM

[in] Query for Proto-oncogene tyrosine-protein kinase Src (Homo sapiens): what IC50 does the record show for "Cc1c(O)cccc1C(=O)c1c[nH]c2ncc(Br)cc12" ?
[out] ≤ 10000 nM

[in] What value of IC50 on Proto-oncogene tyrosine-protein kinase Src (Homo sapiens) does "Cc1ccc(-c2nn([C@@H]3CCN(C(=O)/C=C/CN(C)C4CCC4)C3)c3ncnc(N)c23)cc1" have?
[out] 100 to 1000 nM

[in] Item "COc1ccc(-n2nc(C(C)(C)C)cc2NC(=O)Nc2ccc(OCc3ccnc(Nc4cnccn4)c3)c3ccccc23)cc1C" with Proto-oncogene tyrosine-protein kinase Src (Homo sapiens) - IC50?
[out] 82 nM

[in] GET /values?readout=IC50&system=Proto-oncogene tyrosine-protein kinase Src (Homo sapiens)&item= "C=CC(=O)N1C[C@@H]2[C@@H](C#Cc3c(-c4ccc(Oc5ccccc5)cc4)c4c(N)ncnc4n3CCOC)[C@@H]2C1"
[out] ≤ 10 nM

[in] Recall the recorded IC50 for "COc1cc(Nc2ncnc(-n3c(Nc4ccc5cn[nH]c5c4)nc4ccccc43)n2)cc(OC)c1OC" with Proto-oncogene tyrosine-protein kinase Src (Homo sapiens) and state it.
[out] > 8830 nM
